Molecular target: C5a Receptor (Homo sapiens, UniProt P21730)
Construct: 2.5-25 μg/mL of purified PMNL membrane fragments
Sequence (P21730 1-350): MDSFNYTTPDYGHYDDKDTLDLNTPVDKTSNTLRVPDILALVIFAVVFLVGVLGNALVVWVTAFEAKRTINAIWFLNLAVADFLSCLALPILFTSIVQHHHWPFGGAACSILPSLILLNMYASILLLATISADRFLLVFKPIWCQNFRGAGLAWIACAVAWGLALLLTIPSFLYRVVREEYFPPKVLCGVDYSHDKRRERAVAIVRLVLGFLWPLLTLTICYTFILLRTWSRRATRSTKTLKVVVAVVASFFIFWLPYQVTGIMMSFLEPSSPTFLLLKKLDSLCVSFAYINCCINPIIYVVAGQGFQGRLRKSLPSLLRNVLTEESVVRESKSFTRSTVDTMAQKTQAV
Experiment: Anaphylatoxin receptor binding Ki determination: inhibition of 125I-C5a binding to PMNL membrane fragments
Details: 0.03-1 nM 125I-C5a, 2.5-25 μg/mL purified PMNL membrane fragments, filtration; read-out: In vitro C5a Receptor Binding Potency Ki
Square brackets hold non-standard residues; d marks the D form. Peptide text beside a SMILES is read from it. * marks the point of attachment. NMe2Phe = CN(C)[C@@H](Cc1ccccc1)C(=O)*; Cha = N[C@@H](CC1CCCCC1)C(=O)O; NMeA = CN[C@@H](C)C(=O)O; dNMeA = CN[C@H](C)C(=O)O
Task for the reader: assign each of the following compounds its reported pKi.
FYI, pKi means -log10 of a concentration in mol per litre.

For the compound CC(C)C[C@H](NC(=O)[C@H](C)NC(=O)[C@H](CC1CCCCC1)NC(=O)[C@H](C)NC(=O)[C@H](CCCCN)NC(=O)[C@@H](N)Cc1ccccc1)C(=O)N(C)[C@H](C)C(=O)N[C@@H](CCCNC(=N)N)C(=O)O [Example 296] (H-FKA[Cha]AL[dNMeA]R-OH) , what pKi is on record? 7.92

Any idea what its pKi is? The compound is CC(C)C[C@H](NC(=O)[C@H](Cc1ccccc1)NC(=O)[C@H](Cc1ccccc1)NC(=O)[C@H](CC(N)=O)NC(=O)[C@H](CCCCN)NC(=O)[C@@H](N)Cc1ccccc1)C(=O)N[C@H](C)C(=O)N[C@@H](CCCNC(=N)N)C(=O)O [Example 91] (H-FKNFFL[dA]R-OH) 6.31

// query pKi value for entry C[C@H](NC(=O)[C@H](CCCCN)NC(=O)[C@@H](N)Cc1ccccc1)C(=O)N[C@@H](CC1CCCCC1)C(=O)NCC(=O)N[C@H](Cc1c[nH]c2ccccc12)C(=O)N[C@H](C)C(=O)N[C@@H](CCCNC(=N)N)C(=O)O [Example 249] (H-FKA[Cha]G[dW][dA]R-OH) 6.96

For CC(C)C[C@H](NC(=O)CNC(=O)[C@H](CC1CCCCC1)NC(=O)[C@H](C)N(C)C(=O)[C@H](CCCCN)NC(=O)[C@H](Cc1ccccc1)N(C)C)C(=O)N(C)[C@H](C)C(=O)N[C@@H](CCCNC(=N)N)C(=O)O [Example 455] (NMe2Phe-K[NMeA][Cha]GL[dNMeA]R-OH) , what is its reported pKi? 7.77

* * *

Biological target: C5a Receptor (Homo sapiens, UniProt P21730)
Construct: 2.5-25 μg/mL of purified PMNL membrane fragments
Sequence (P21730 1-350): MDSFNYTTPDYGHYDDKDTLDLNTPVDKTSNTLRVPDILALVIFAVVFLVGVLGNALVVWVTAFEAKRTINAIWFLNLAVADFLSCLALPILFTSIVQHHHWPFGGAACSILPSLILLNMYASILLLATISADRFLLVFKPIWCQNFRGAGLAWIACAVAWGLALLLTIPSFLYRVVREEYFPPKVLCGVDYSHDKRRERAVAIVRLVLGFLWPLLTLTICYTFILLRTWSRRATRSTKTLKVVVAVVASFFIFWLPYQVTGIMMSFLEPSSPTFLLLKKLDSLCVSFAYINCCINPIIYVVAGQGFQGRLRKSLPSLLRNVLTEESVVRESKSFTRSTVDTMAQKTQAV
Experiment: Anaphylatoxin receptor binding Ki determination: inhibition of 125I-C5a binding to PMNL membrane fragments
Conditions: 0.03-1 nM 125I-C5a, 2.5-25 μg/mL purified PMNL membrane fragments, filtration; read-out: In vitro C5a Receptor Binding Potency Ki
Square brackets hold non-standard residues; d marks the D form. Peptide text beside a SMILES is read from it. * marks the point of attachment. Phe(4-NO2) = N[C@@H](Cc1ccc([N+](=O)[O-])cc1)C(=O)O; NMeF = CN[C@@H](Cc1ccccc1)C(=O)O; hCha = N[C@@H](CCC1CCCCC1)C(=O)O; Cha = N[C@@H](CC1CCCCC1)C(=O)O; Boc = CC(C)(C)OC(=O)*
What Ki was measured for each of the following?
# output: bare number, implied unit nM

Which Ki reading was recorded for the compound CC(C)C[C@H](NC(=O)[C@H](CC1CCCCC1)NC(=O)[C@@H](C)NC(=O)[C@H](C)NC(=O)[C@H](CCCCN)NC(=O)[C@@H](N)Cc1ccccc1)C(=O)N[C@H](C)C(=O)N[C@@H](CCCNC(=N)N)C(=O)O [Example 247] (H-FKA[dA][Cha]L[dA]R-OH) ? 330

Item under review: CCCC(C(=O)N[C@H](C)C(=O)N[C@@H](CCCNC(=N)N)C(=O)O)N1CCCC[C@H](NC(=O)[C@H](CC2CCCCC2)NC(=O)[C@H](Cc2c[nH]cn2)NC(=O)[C@H](CCCCN)NC(=O)[C@@H](N)Cc2ccccc2)C1=O (stereo partly shown) . Reported Ki? 110

Bench note: what Ki did CC(C)C[C@H](NC(=O)[C@H](C)NC(=O)[C@H](CCC1CCCCC1)NC(=O)[C@H](C)NC(=O)[C@H](CCCCN)NC(=O)[C@@H](N)Cc1ccccc1)C(=O)N[C@H](C)C(=O)N[C@@H](CCCNC(=N)N)C(=O)O [Example 106] (H-FKA[hCha]AL[dA]R-OH) show? 42

For the compound shown here, CC(=O)N[C@@H](Cc1ccc([N+](=O)[O-])cc1)C(=O)N[C@@H](CCCCN)C(=O)N[C@@H](CC(=O)O)C(=O)N[C@@H](CC1CCCCC1)C(=O)N[C@@H](CC1CCCCC1)C(=O)N[C@@H](CC(C)C)C(=O)N[C@H](C)C(=O)N[C@@H](CCCNC(=N)N)C(=O)O [Example 31] (Ac-[Phe(4-NO2)]KD[Cha][Cha]L[dA]R-OH) , give the reported Ki. 90

Suppose we examine the compound CC(C)C[C@H](NC(=O)[C@H](C)NC(=O)[C@H](CC1CCCCC1)NC(=O)[C@H](C)NC(=O)[C@H](CCCCN)NC(=O)[C@H](Cc1ccccc1)NC(=O)OC(C)(C)C)C(=O)N[C@H](C)C(=O)N[C@@H](CCCNC(=N)N)C(=O)O [Example 404] (Boc-FKA[Cha]AL[dA]R-OH) ; what Ki value has been reported? 130

Given C[C@H](NC(=O)[C@H](CCCCN)NC(=O)[C@@H](N)Cc1ccccc1)C(=O)N[C@@H](CC1CCCCC1)C(=O)N[C@@H](CC1CCCCC1)C(=O)N[C@H](C)C(=O)N[C@H](C)C(=O)N[C@@H](CCCNC(=N)N)C(=O)O [Example 202] (H-FKA[Cha][Cha][dA][dA]R-OH) , state its recorded Ki. 870

Give its Ki value. Item: CN[C@@H](Cc1ccccc1)C(=O)N[C@@H](CCCCN)C(=O)N[C@@H](CCCNC(=N)N)C(=O)N[C@@H](CCSC)C(=O)N[C@@H](CCC(N)=O)C(=O)N[C@@H](CC(C)C)C(=O)NCC(=O)N[C@@H](CCCNC(=N)N)C(=O)O [Example 460] (H-[NMeF]KRMQLGR-OH) 21

* * *

What pKi was measured for each of the following?
Molecular target: C5a Receptor (Homo sapiens)
Construct: 2.5-25 μg/mL of purified PMNL membrane fragments
Sequence (P21730 1-350): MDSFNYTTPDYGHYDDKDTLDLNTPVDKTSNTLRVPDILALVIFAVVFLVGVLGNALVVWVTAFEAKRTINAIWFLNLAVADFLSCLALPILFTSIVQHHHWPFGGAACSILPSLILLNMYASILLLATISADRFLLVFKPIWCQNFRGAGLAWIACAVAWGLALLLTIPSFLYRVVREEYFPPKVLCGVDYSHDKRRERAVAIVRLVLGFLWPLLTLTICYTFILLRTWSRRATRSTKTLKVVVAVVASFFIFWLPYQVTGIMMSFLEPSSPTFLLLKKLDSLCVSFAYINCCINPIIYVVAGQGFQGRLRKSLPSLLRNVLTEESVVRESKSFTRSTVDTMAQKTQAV
Experiment: Anaphylatoxin receptor binding Ki determination: inhibition of 125I-C5a binding to PMNL membrane fragments
Settings: 0.03-1 nM 125I-C5a, 2.5-25 μg/mL purified PMNL membrane fragments, filtration; read-out: In vitro C5a Receptor Binding Potency Ki
Square brackets hold non-standard residues; d marks the D form. Peptide text beside a SMILES is read from it. * marks the point of attachment. X2 = C[C@H](CN[C@@H](CCCNC(=N)N)C(=O)O)N*; 2Nal = N[C@@H](Cc1ccc2ccccc2c1)C(=O)O; NEtPhe = CCN[C@@H](Cc1ccccc1)C(=O)O; Cha = N[C@@H](CC1CCCCC1)C(=O)O; dNMeA = CN[C@H](C)C(=O)O
Reminder that pKi is minus the log10 of a molar concentration.

Fill blank: measured pKi of the compound CC(C)C[C@H](NC(=O)[C@H](C)NC(=O)[C@H](CC1CCCCC1)NC(=O)[C@H](C)NC(=O)[C@H](CCCCN)NC(=O)[C@@H](N)Cc1ccccc1)C(=O)N[C@H](C)CN[C@@H](CCCNC(=N)N)C(=O)O [Example 421] (H-FKA[Cha]AL-X2) is ____. 5.49

Tell me the measured pKi of CC(C)C[C@H](NC(=O)[C@H](CC1CCCCC1)NC(=O)[C@H](CC1CCCCC1)NC(=O)[C@H](C)NC(=O)[C@H](CCCCN)NC(=O)[C@@H](N)Cc1ccccc1)C(=O)N[C@@H](C)C(=O)N[C@@H](CCCNC(=N)N)C(=O)O [Example 188] (H-FKA[Cha][Cha]LAR-OH) , please. 6.68

What pKi value was documented for this compound, CSCC[C@H](NC(=O)[C@H](CC(=O)O)NC(=O)[C@H](CCCCN)NC(=O)[C@@H](N)Cc1ccc2ccccc2c1)C(=O)N[C@@H](CCC(N)=O)C(=O)N[C@@H](CC(C)C)C(=O)NCC(=O)N[C@@H](CCCNC(=N)N)C(=O)O [Example 377] (H-[2Nal]KDMQLGR-OH) ? 5.74

Quick one: pKi for CCN[C@@H](Cc1ccccc1)C(=O)N[C@@H](CCCCN)C(=O)N[C@@H](C)C(=O)N[C@@H](CC1CCCCC1)C(=O)N[C@@H](C)C(=O)N[C@@H](CC(C)C)C(=O)N(C)[C@H](C)C(=O)N[C@@H](CCCNC(=N)N)C(=O)O [Example 402] (H-[NEtPhe]KA[Cha]AL[dNMeA]R-OH) ? 7.96

Reference for the values: patent US5223485A
